# Test Conditions: in acetone, 313.15 K
Recorded Metric: solubility (mole fraction)
Simply state the number, no unit and no words.

The compound listed as CC(C)(C)OC(=O)N[C@@H](CCC(N)=O)C(=O)O shows solubility (mole fraction) equal to 0.146

----------
# Test Conditions: in isopropanol, 293.15 K
Recorded Metric: solubility (mole fraction)
Simply state the number, no unit and no words.

The molecule listed as CC(C)(C)OC(=O)N[C@@H](CCC(N)=O)C(=O)O shows solubility (mole fraction) equal to 0.0789

----------
# Test Conditions: in isobutanol, 323.15 K
Recorded Metric: solubility (mole fraction)

The compound listed as CC(C)(C)OC(=O)N[C@@H](CCC(N)=O)C(=O)O shows solubility (mole fraction) equal to 0.108

----------
# Test Conditions: in isobutanol, 318.15 K
Recorded Metric: solubility (mole fraction)
Simply state the number, no unit and no words.

The molecule listed as CC(C)(C)OC(=O)N[C@@H](CCC(N)=O)C(=O)O shows solubility (mole fraction) equal to 0.0943

----------
# Test Conditions: in ethanol, 318.15 K
Recorded Metric: solubility (mole fraction)
Simply state the number, no unit and no words.

The molecule listed as CC(C)(C)OC(=O)N[C@@H](CCC(N)=O)C(=O)O shows solubility (mole fraction) equal to 0.202

----------
# Test Conditions: in acetone, 308.15 K
Recorded Metric: solubility (mole fraction)

The compound listed as CC(C)(C)OC(=O)N[C@@H](CCC(N)=O)C(=O)O shows solubility (mole fraction) equal to 0.127

----------
# Test Conditions: in isopropanol, 318.15 K
Recorded Metric: solubility (mole fraction)
Simply state the number, no unit and no words.

The compound listed as CC(C)(C)OC(=O)N[C@@H](CCC(N)=O)C(=O)O shows solubility (mole fraction) equal to 0.175

----------
# Test Conditions: in ethyl acetate, 293.15 K
Recorded Metric: solubility (mole fraction)
Simply state the number, no unit and no words.

The compound listed as CC(C)(C)OC(=O)N[C@@H](CCC(N)=O)C(=O)O shows solubility (mole fraction) equal to 0.00301

----------
# Test Conditions: in acetonitrile, 288.15 K
Recorded Metric: solubility (mole fraction)
Simply state the number, no unit and no words.

The compound listed as CC(C)(C)OC(=O)N[C@@H](CCC(N)=O)C(=O)O shows solubility (mole fraction) equal to 0.00389

----------
# Test Conditions: in water, 313.15 K
Recorded Metric: solubility (mole fraction)
Simply state the number, no unit and no words.

The compound listed as CC(C)(C)OC(=O)N[C@@H](CCC(N)=O)C(=O)O shows solubility (mole fraction) equal to 0.0554

----------
# Test Conditions: in ethyl acetate, 288.15 K
Recorded Metric: solubility (mole fraction)
Simply state the number, no unit and no words.

The compound listed as CC(C)(C)OC(=O)N[C@@H](CCC(N)=O)C(=O)O shows solubility (mole fraction) equal to 0.00241

----------
# Test Conditions: in 2-butanone, 288.15 K
Recorded Metric: solubility (mole fraction)
Simply state the number, no unit and no words.

The compound listed as CC(C)(C)OC(=O)N[C@@H](CCC(N)=O)C(=O)O shows solubility (mole fraction) equal to 0.0219

----------
# Test Conditions: in ethyl acetate, 283.15 K
Recorded Metric: solubility (mole fraction)
Simply state the number, no unit and no words.

The molecule listed as CC(C)(C)OC(=O)N[C@@H](CCC(N)=O)C(=O)O shows solubility (mole fraction) equal to 0.00199

The measurements presented in this section are drawn from BigSolDB 2.1.
